- System: Mus musculus
- Assay procedure: Antinociceptive activity in BALB/c mouse assessed as increase in paw withdrawal latency at 1 mg/kg, iv measured 30 mins post dose by hot plate test
- Format: functional, organism-based
- Parameters: dose 1 mg/kg
Activity calls are given as the source filed them. The calls are words filed in the database; no cut-off is given here.
Assay readout: Activity

substance_smiles=NC(=O)NCCNC(=O)[C@@H]1CCCNC(=O)NCCC[C@@H](NC(=O)[C@@H](N)Cc2ccc(O)cc2)C(=O)N[C@@H](Cc2ccccc2)C(=O)N1 measured_result=inactive
substance_smiles=NC(=O)NCCNC(=O)[C@@H]1CCNC(=O)NCCC[C@@H](NC(=O)[C@@H](N)Cc2ccc(O)cc2)C(=O)N[C@@H](Cc2ccccc2)C(=O)N1 measured_result=inactive
substance_smiles=NC(=O)NCCNC(=O)[C@@H]1CNC(=O)NCCC[C@@H](NC(=O)[C@@H](N)Cc2ccc(O)cc2)C(=O)N[C@@H](Cc2ccccc2)C(=O)N1 measured_result=inactive
